assay: Antiproliferative activity against mouse BA/F3 cells expressing Bcr-Abl H396P mutant after 72 hrs by CCK-8 assay; conditions: BaF3, 72 h
Documented IC50 across a set of compounds
Write the value in nM as a bare number.

INSERT INTO assay_data (smiles_text, attribute_measured, measured_value) VALUES
  ('CN1CCN(Cc2ccc(NC(=O)c3ccc(Cl)c(-n4cc(-c5cnc6[nH]ncc6c5)nn4)c3)cc2C(F)(F)F)CC1', 'IC50', 0.3),
  ('Cc1cn(-c2cc(NC(=O)c3ccc(C)c(Nc4nccc(-c5cccnc5)n4)c3)cc(C(F)(F)F)c2)cn1', 'IC50', 6.34),
  ('Cc1nc(Nc2ncc(C(=O)Nc3c(C)cccc3Cl)s2)cc(N2CCN(CCO)CC2)n1', 'IC50', 0.31),
  ('Cc1ccc(NC(=O)c2ccc(CN3CCN(C)CC3)cc2)cc1Nc1nccc(-c2cccnc2)n1', 'IC50', 110);

Turning now to a further compound:
Lookup: I am curious: what IC50 value has been reported for `Cc1ccc(C(=O)Nc2ccc(CN3CCN(C)CC3)c(C(F)(F)F)c2)cc1-n1cc(-c2cnc3[nH]ncc3c2)nn1` ?
Found: 0.28
